Where do the numbers come from? From ChEMBL document CHEMBL1201862.

Catalogue of GI50 readings, one per entry.
# System: HCT-15
value.type: GI50 (µM)

INSERT INTO assay_data (molecule, measurement_target, bound_type, data_value) VALUES
  ('N#CC(C#N)=C1NN=C(Cl)c2ccccc21', 'HCT-15', '>', 100),
  ('Cc1ccc(O)c(C(c2cc(C)ccc2O)c2cc([N+](=O)[O-])ccc2O)c1', 'HCT-15', '=', 16.3),
  ('COc1cccc2c1C(CO)N1C(C#N)C3CC(C(=O)O)C(C1C2)N3C (configuration not stated)', 'HCT-15', '=', 1.43),
  ('CCOC(=O)CCC(C(=O)OCC)n1nc2ccc(Nc3c(C)[n+]([O-])c4ccc(Cl)cc4[n+]3[O-])cc2n1 (configuration not stated)', 'HCT-15', '=', 17.6),
  ('c1ccc(/N=C(\N2CCOCC2)N(CCN2CCOCC2)c2ccccc2)cc1', 'HCT-15', '>', 100),
  ('COc1ccc(N2C(=O)C3CC4=CC(=O)C[C@H]4[C@H]32)cc1 (some centres not stated)', 'HCT-15', '=', 40.9),
  ('Cc1cc(Cl)ccc1N1C(=O)C(=O)C(c2nc3ccccc3o2)C(=O)C1=O', 'HCT-15', '>', 100),
  ('Cc1ccc(C(=O)NC(C)(C)C)cc1/N=N/N(C)C', 'HCT-15', '>', 100),
  ('COc1ccc(C2SC(=N)Nc3c2c(C)nn3C(=O)c2ccncc2)cc1 (configuration not stated)', 'HCT-15', '>', 100),
  ('CC1(C)C=Cc2c(cc(O)c3c(=O)c4cc(Cl)ccc4[nH]c23)O1', 'HCT-15', '=', 3.27),
  ('COc1ccc2c3ccc4c(c3n(C)c2c1)C(=O)c1ccccc1C4=O', 'HCT-15', '>', 100),
  ('COC(=O)c1c(OC)cccc1C(=O)O', 'HCT-15', '>', 100),
  ('C/C(=C\c1ccc(Cl)cc1)C(C)(C)C(=O)O', 'HCT-15', '>', 100),
  ('CC(C)(C)c1cc(C(C)(C)C)c(SC2OC(CO)C(O)C(O)C2O)c(O)c1O (configuration not stated)', 'HCT-15', '=', 4.54),
  ('OC1CCN(c2c3ccccc3nc3ccccc23)CC1', 'HCT-15', '=', 16.5),
  ('COC1=C2C=[N+](C)C3C(=C2C=CC1OC)Cc1cc2c(cc13)OCO2 (configuration not stated)', 'HCT-15', '=', 17.7),
  ('N#CC(NC12CC3CC(CC(C3)C1)C2)c1ccccc1 (configuration not stated)', 'HCT-15', '>', 100),
  ('c1ccc(Cc2nc(Cc3n[nH]c(Cc4ccccc4)n3)n[nH]2)cc1', 'HCT-15', '>', 100),
  ('COC(=O)[C@H](Cc1c[nH]c2ccccc12)NC(=O)c1ccccc1I', 'HCT-15', '>', 100),
  ('O=C(COc1ccc(OCC(=O)N2C(=O)CC(=O)N(c3ccc(Cl)cc3)C2=S)cc1)N1C(=O)CC(=O)N(c2ccc(Cl)cc2)C1=S', 'HCT-15', '=', 24.3),
  ('CCOC(=O)/C(=C\NC(C)(C)C)c1nc2ccccc2[nH]1', 'HCT-15', '=', 34.2),
  ('COC1(c2cccs2)c2ccccc2C(OC)(c2cccs2)c2ccccc21 (configuration not stated)', 'HCT-15', '>', 100);
